# TARGET DESC: human CD3 expressed on cells (Jurkat cells; human T-cells of PBMC) (human, UniProt P09693 23-182; P20963 22-164)
# Sequence (chain, as listed by the source, chain 1 of 4): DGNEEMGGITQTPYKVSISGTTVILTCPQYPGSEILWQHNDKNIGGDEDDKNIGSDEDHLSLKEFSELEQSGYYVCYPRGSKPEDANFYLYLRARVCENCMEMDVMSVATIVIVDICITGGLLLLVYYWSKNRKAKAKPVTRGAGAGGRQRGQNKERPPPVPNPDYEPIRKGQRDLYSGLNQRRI
# Sequence (chain, as listed by the source, chain 2 of 4): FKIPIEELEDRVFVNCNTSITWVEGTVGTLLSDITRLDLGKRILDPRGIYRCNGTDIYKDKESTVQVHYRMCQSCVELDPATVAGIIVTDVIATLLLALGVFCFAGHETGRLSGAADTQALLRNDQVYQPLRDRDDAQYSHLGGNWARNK
# Sequence (P09693 23-182, chain 3 of 4): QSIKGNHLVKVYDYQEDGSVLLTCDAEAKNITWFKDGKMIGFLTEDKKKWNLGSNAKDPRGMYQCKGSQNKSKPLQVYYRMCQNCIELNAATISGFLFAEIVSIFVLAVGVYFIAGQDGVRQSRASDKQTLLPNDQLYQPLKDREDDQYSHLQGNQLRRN
# Sequence (P20963 22-164, chain 4 of 4): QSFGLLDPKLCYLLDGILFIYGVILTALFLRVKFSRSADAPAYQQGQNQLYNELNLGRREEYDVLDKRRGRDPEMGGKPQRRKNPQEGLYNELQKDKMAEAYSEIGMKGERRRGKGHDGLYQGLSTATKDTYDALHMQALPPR
# EXPERIMENT NOTES: cell-based or functional assay
READOUT NAME: U937 Cytotoxicity Human T-cells (pM)
Numbers only, in pM.

Previously resolved entries follow.
>  <BINDER>
H1H5755B (antibody, human IgG1, V domains shown, H1H: human IgG1 Fc) VH: EVQLVESGGGVVQPGRSLRLSCAASGFTFSNYGMHWVRQAPGKGLEWVTVILHDGSYKYYADSVKGRFTISRDNSKNTLHLQMNSLRTEDTAVYYCAKGPMFRGVPYNHYYGMDVWGQGTTVTVSS VL: DIQMTQSPSSLSASVGDRVTITCRASQGIRNDLGWYQQKPGKAPKRLIYAASSLQSGVSSRFSGSGSGTEFTLTISSLQPEDFATYYCLQHNSYPYTFGQGTKVEIKR

>  <UNIT ABBREVIATION>
pM

>  <U937 Cytotoxicity Human T-cells>
51.6

$$$$
>  <BINDER>
H1H5753B (antibody, V domains shown) VH: QVQLVESGGGLVQPGGSLRLSCAASYFTFSSFAMNWVRQAPGQGLEWVSAISGRVSAISGSGGITYYADSVKGRFIISRDNSKNTLYLQMSGLRAEDTAVYYCAKGPYLTTVTPFDYWGQGTLVTVSS VL: DIQLTQSPSSVSASVGDRVTITCRASQGISSWLAWYQQKPGKAPKLLIYAVSSLQNGVPSRFSGSGSGTDFTLTISSLQPEDFATYYCQQANSFPFTFGPGTKLEIK

>  <UNIT ABBREVIATION>
pM

>  <U937 Cytotoxicity Human T-cells>
379

$$$$

Input: Fill blank: measured U937 Cytotoxicity Human T-cells of the binder H1H5792B (antibody, human IgG1, V domains shown, H1H: human IgG1 Fc) VH: QVQLVESGGGVVQPGRSLRLSCAASGFTFSSYGMHWVRQAPGKGLEWVSTISFDGSNKYYADSVKGRFTISRDNSKNTLYLQMNSLRPEDTAVYYCAKGGGTSGSYFYYGMDVWGQGTTVTVSS VL: AIQMTQSPSSLSASVGDRVTITCRASQRISSFLNWYQQKPGKAPKLLIYTASNLQNGVPSRFSGSGSGTDFTLTISSLQPEDFATYYCQQSYRTPLTFGGGTKLEIKR is ____.
Output: 140
